Data credit: PubChem BioAssay

I'd be grateful if you could share measured z-score for these entries.
Test: modulators of HCV replicon luciferase signal, primary screen, HCV replication inhibitor project, Huh7 cells, luciferase reporter (AID 1109);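 also: huh7 hepatoma cells harbouring a luciferase neomycin HCV replicon reporter; luciferase luminescence as measure of HCV replicon replication; test concentration not given here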
Conditions: 48 h, higher = more signal

COMPOUND	MEASUREMENT_KIND	RESULT
Cc1ccccc1C(O)C1C=CC2C(=O)N(c3ccccc3)C(=O)C2N1Nc1ccccc1F (stereo unspecified)	z-score	1.97
CO[C@H]1O[C@H](CO)[C@@H](OC(=O)Nc2ccc(C(F)(F)F)cc2)[C@H](OC(=O)Nc2ccccc2-c2ccccc2)[C@@H]1OC(=O)Nc1ccccc1-c1ccccc1	z-score	-2.79
C[C@@H](OCc1ccccc1)C1NC(=O)[C@@]23C(=O)N[C@@H](Cc4ccccc4)C2[C@H](C)[C@@]2(C)O[C@H]2C3/C=C/C/C=C\CNC(=O)[C@H](Cc2ccccc2)NC1=O (stereo partly specified)	z-score	-0.963
CC(=O)n1cc(C(O)C2C=CC3C(=O)N(c4ccccc4)C(=O)C3N2Nc2ccccc2F)c2ccccc21 (stereo unspecified)	z-score	-0.159
[N-]=[N+]=NCc1ccccc1C[C@]1(C(=O)N2CCCCC2)N=C(c2ccc(OCCCO)cc2)O[C@H]1c1ccccc1	z-score	-3.2

Requested read-out: z-score. Entry: COCCOC(=O)N1C(=O)[C@@]2(c3ccccc31)[C@H](c1ccc(OCCO)cc1)N1[C@H](c3ccccc3)[C@H](c3ccccc3)OC(=O)[C@H]1[C@@H]2C(=O)N1CCN(c2ncccn2)CC1
-1.47

* * *

I'd be grateful if you could share measured z-score for these entries.
Assay: inhibitors of hydroxyurea-induced Chk1 phosphorylation, primary screen, imaging, HeLa, phospho-Chk1 antibody, percent positive cells (AID 1186)
Settings: hydroxyurea-induced phospho-Chk1 immunofluorescence imaging, higher = more signal
Give bare numbers.

Example entries and their recorded answers appear below.
COMPOUND	NUMERIC_READOUT
C=CCNC(=O)[C@H]1[C@@H]2C(=O)O[C@@H](c3ccccc3)[C@@H](c3ccccc3)N2[C@@H](c2ccc(O)cc2)[C@]12C(=O)Nc1ccc(C#CC3=CCCCC3)cc12	-0.354
O=C1O[C@@H](c2ccccc2)[C@@H](c2ccccc2)N2[C@@H](c3ccc(O)cc3)[C@]3(C(=O)Nc4ccc(C#CC5=CCCCC5)cc43)[C@@H](C(=O)N3CCCCCCC3)[C@H]12	-0.434

Now look at this one.
Requested read-out: z-score. Entry: C[C@@H](OCc1ccccc1)C1NC(=O)[C@@]23C(=O)N[C@@H](Cc4ccccc4)C2[C@H](C)[C@@]2(C)O[C@H]2C3/C=C/C/C=C\CNC(=O)[C@H](Cc2ccccc2)NC1=O (stereo partly drawn)
0.0781

* * *

Biological target: Fibroblast growth factor 2 (Homo sapiens)
Assay: FGF2 binders on small-molecule microarrays, primary screen, biochemical, small-molecule microarray, 635/667 nm fluorescence (AID 1133)
Details: small-molecule microarray binding, FGF2, fluorescence 635/667; higher = more signal
MEASUREMENT_KIND: composite z-score
One number for each entry.

Example entries and their recorded answers appear below.
COMPOUND	ASSAYED_SYSTEM	MEASUREMENT_KIND	NUMERIC_READOUT
C=CCC(OC(C)=O)[C@@H]1[C@@H](N(Cc2cc3ccccc3o2)C(=O)c2cccc3ccccc23)c2cc(OCCCO)ccc2N1C(=O)c1ccc2ccccc2c1 (some centres undefined)	Fibroblast growth factor 2 (Homo sapiens)	composite z-score	0.133
COc1ccccc1CN1C(=O)c2ccccc2[C@](Cc2ccccc2I)(C(=O)NCCCN(C)C)[C@@H]1c1ccc(CO)cc1	Fibroblast growth factor 2 (Homo sapiens)	composite z-score	0.141
CCOC(=O)C1=C[C@@H](C(C)(C)C)N(S(=O)(=O)c2ccc(C)cc2)[C@H]1c1ccccc1Cl	Fibroblast growth factor 2 (Homo sapiens)	composite z-score	0.119
COC(=O)[C@H](Cc1ccc(O)cc1)N1CC2=CCCC=C[C@@H]2[C@H]1[C@H](O)Cc1ccccc1	Fibroblast growth factor 2 (Homo sapiens)	composite z-score	0.348
C=C(COC)C(=O)CC[C@@H](OC(=O)c1cccnc1)c1cccc(OCCO)c1	Fibroblast growth factor 2 (Homo sapiens)	composite z-score	0.773
CCCCC(=C=CC[C@@H](O)c1ccc(OCCO)cc1)C[C@@H](O)c1ccccn1	Fibroblast growth factor 2 (Homo sapiens)	composite z-score	0.611
CCOC(=O)C1=CC[C@@H](c2ccccc2Cl)N(S(=O)(=O)c2ccc(C)cc2)[C@H]1c1cccc(OC)c1	Fibroblast growth factor 2 (Homo sapiens)	composite z-score	0.0652
C=CCC(OC(C)=O)[C@@H]1[C@@H](N(Cc2ccc(-c3cccc(C(F)(F)F)c3)o2)C(=O)Cc2ccc(OC)cc2)c2cc(OCCCO)ccc2N1C(=O)c1ccc2ccccc2n1 (some centres undefined)	Fibroblast growth factor 2 (Homo sapiens)	composite z-score	-0.149

Report composite z-score for every entry below.
1. NCCCC[C@@H]1NC(=O)[C@H]2C[C@@H](C(=O)NCc3ccc(F)cc3)[C@@H](c3ccc(O)cc3)N2C1=O
2. COCCOC(=O)N1C(=O)[C@@]2(c3cc(C#CCC(C(=O)OC)C(=O)OC)ccc31)[C@H](C(N)=O)[C@H]1C(=O)O[C@H](c3ccccc3)[C@H](c3ccccc3)N1[C@@H]2c1ccc(OCCO)cc1
3. COCCOC(=O)N1C(=O)[C@@]2(c3cc(C#CCCO)ccc31)[C@H](C(=O)N1CCN(c3ncccn3)CC1)[C@H]1C(=O)O[C@H](c3ccccc3)[C@H](c3ccccc3)N1[C@@H]2c1ccc(O)cc1
4. C=C(COC)/C(=C/C[C@H](OC(=O)c1ccncc1)c1ccc(OCCO)cc1)c1cc(C(=O)OC)ccc1OC
5. C[N+](C)(C)CCCCCCNC(=O)[C@H]1C[C@H]2C(=O)NCC(=O)N2[C@H]1c1cccc(OCCO)c1
6. O=C1OCCC/C=C\[C@H]2OC34C=CCN(Cc5ccccc5)C(=O)[C@H]3N(CCCCCO)C(=O)[C@@H]4C12 (some centres undefined)

1. 1.32
2. 1.1
3. 0.088
4. 0.329
5. 1.63
6. -0.883
